# System: gene editing with Cas9
# assayRemarks: Screen of 322 new SSAP proteins, gene editing activity with Cas9 (Table 5)
# Format: cell-based
# settings: normalized
property: Cas9 with SSAP activity (normalized)
Provide a numeric answer; units are not to be included.

SSAP_79: SEQ ID NO: 248 (protein) EALLLRRWQMGNLTKTTGFALAPQNLEQAMQLATMICNSQLAPNNYKGKPEDTLVAMMMGHELGLNPLQSIQNIAVINGRPSIYGDALLALVQNSPAFGGIQESFDEDTMTATCTVWRKGGEKHTQHYSKDDADTAGLWGKQGPWKQHPKRMLAMRARGFAVRNQFADALAGLVTREEAEDMEKEINPTPAPQAQSKRIGQKQSRTQYSESDFNENFPKWKAAVESGKKTSEQIISMVSTKGDLTQGMIEAIESIEAGEPA; −2.086

For the next question, use this molecule.
The molecule listed as SSAP_290: SEQ ID NO: 459; Anaerovirgula multivorans (protein, Anaerovirgula multivorans) DAKHLTVVHQNLNTLLKAKADALPKGFNQTRFLQNCMTVLQDTKDIESVEPKSVARTMLKGAFLGLDFFNKECYAIVYNKKAGNSWIKTLEFQTDYKGEIKLAKKYSINTIKDIYAKLVREGDEFEEGVKDGKQVINFKPKPFNNNKILGAFAVAYYENGSMIYDTMSVEEIESVKKAYAKADKEGKYSKAWIESTGEMYKKTVLRRLCKLIELDFDTIEQKQAFDEGSGMEFKQEGKTDKPKSSLEAEFVEAEYEEVEESETSEVVEE shows Cas9 with SSAP activity (normalized) equal to −0.249

Attribution: patent US20250034594A1
